Test Protocol: Cytotoxicity against human MT4 cells assessed as reduction in cell viability measured after 5 days by MTT assay
Format: toxicity, cell-based
Experimental Context: time 5 day
CC50 at 120 h less than 6 µM is class 1; CC50 at 120 h greater than or equal to 6 µM is class 0.

{"columns": ["Compound", "Qualitative Label"],
 "data": [
  ["Cc1cc(-c2cccs2)cc(C)c1Nc1ccnc(Nc2ccc(C#N)cc2)n1", "class 0"],
  ["Cc1cnc(Nc2ccc(C#N)cc2)nc1Nc1c(F)cc(-c2cncnc2)cc1F", "class 1"],
  ["Cc1cnc(Nc2ccc(C#N)cc2)nc1Nc1c(F)cc(-c2cc(F)nc(F)c2)cc1F", "class 0"],
  ["Cc1cc(-c2ccnc3ccccc23)cc(C)c1Nc1ccnc(Nc2ccc(C#N)cc2)n1", "class 1"],
  ["Cc1ccnc2c1NC(=O)c1cccnc1N2C1CC1 [NEVIRAPINE]", "class 0"]
]}

Lab note: confirm whether the reported CC50 at 120 h for this compound is below 6 µM, equality not counting. compound: `Cc1cc(-c2cc(F)nc(F)c2)cc(C)c1Nc1ccnc(Nc2ccc(C#N)cc2)n1`
class 0

Does the reported CC50 at 120 h of the following compound sit strictly below 6 µM? `Cc1cnc(Nc2ccc(C#N)cc2)nc1Nc1c(F)cc(-c2ccsc2)cc1F`
class 0

Please state whether CC50 at 120 h is below 6 µM for `Cc1cc(-c2cc(C)c(Nc3ccnc(Nc4ccc(C#N)cc4)n3)c(C)c2)ccn1`
class 1

Hello, is CC50 at 120 h of the following compound strictly smaller than 6 µM? `Cc1cc(-c2cncnc2)cc(C)c1Nc1ccnc(Nc2ccc(C#N)cc2)n1`
class 0

For `Cc1csc(-c2cc(C)c(Nc3ccnc(Nc4ccc(C#N)cc4)n3)c(C)c2)c1` , is the recorded CC50 at 120 h below the cut-off of 6 µM?
class 0

Hello, is CC50 at 120 h of the following compound strictly smaller than 6 µM? `Cc1cnc(Nc2ccc(C#N)cc2)nc1Nc1c(F)cc(-c2cncc(C(F)(F)F)c2)cc1F`
class 0

Does the reported CC50 at 120 h of `Cc1cnc(Nc2ccc(C#N)cc2)nc1Nc1c(F)cc(-c2cncc(C#N)c2)cc1F` stay below 6 µM?
class 0

State whether 6 µM exceeds CC50 at 120 h recorded for `Cc1cnc(Nc2ccc(C#N)cc2)nc1Nc1c(F)cc(-c2ccc(C#N)nc2)cc1F` .
class 0

* * *

Target Or Test System: Cytochrome P450 1A2 (Homo sapiens)
Sequence (P05177 whole entry): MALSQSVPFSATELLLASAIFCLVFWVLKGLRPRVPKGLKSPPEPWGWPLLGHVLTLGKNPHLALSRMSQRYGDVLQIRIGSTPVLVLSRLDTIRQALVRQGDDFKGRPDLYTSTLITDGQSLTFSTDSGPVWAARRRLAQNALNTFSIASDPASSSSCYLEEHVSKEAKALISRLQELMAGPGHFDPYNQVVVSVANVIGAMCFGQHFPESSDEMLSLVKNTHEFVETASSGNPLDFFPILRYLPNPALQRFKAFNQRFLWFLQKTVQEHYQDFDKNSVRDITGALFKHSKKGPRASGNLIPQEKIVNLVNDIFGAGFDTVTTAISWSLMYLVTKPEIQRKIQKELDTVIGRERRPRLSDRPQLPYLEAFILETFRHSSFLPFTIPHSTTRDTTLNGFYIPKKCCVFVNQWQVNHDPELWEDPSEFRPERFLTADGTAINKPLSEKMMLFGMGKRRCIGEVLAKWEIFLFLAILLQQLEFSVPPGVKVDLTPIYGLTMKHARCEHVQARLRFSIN
Assay Endpoint: pIC50
Value format note: pIC50 is -log10 of concentration (mol/L); just state the number.

Return reported pIC50; argument: `Br.Cc1cnc(Nc2ccc(C#N)cc2)nc1Nc1c(F)cc(-c2ccncc2)cc1F`
5.39
